# measured_on: XIAP BIR3 (Homo sapiens, UniProt P98170)
# Construct: covering amino acids 241 to 356; XIAP BIR3
# Sequence (P98170 241-356): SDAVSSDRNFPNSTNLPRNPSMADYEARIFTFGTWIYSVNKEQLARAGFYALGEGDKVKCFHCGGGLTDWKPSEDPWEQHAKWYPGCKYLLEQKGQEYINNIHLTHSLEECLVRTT
# test_details: XIAP BIR3 binding assay (DELFIA), displacement of SMAC peptide
# setup_conditions: GST-fusion BIR3 domain (aa 241 to 356) 10 nM, SMAC peptide 10 nM; activity of the (S)-isomers
readout_kind: IC50 (nM)

Here are 5 compounds together with their reported answers.
INSERT INTO results (compound, reported_value) VALUES
  ('CNC(C)C(=O)Nc1ccc(-c2c(C)nc3ccccn23)c(C#Cc2ccc3c(=O)n(C)ccc3c2)n1 (stereo not shown) [Example 32]', 228),
  ('CC(N)C(=O)Nc1cccc(C#Cc2cccc(C(=O)OCC3CCOCC3)c2)n1 (stereo not shown) [Example 214]', 7380),
  ('CC(N)C(=O)Nc1cccc(C#Cc2ccc(F)c(F)c2)n1 (stereo not shown) [Example 212]', 3060),
  ('CNC(C)C(=O)Nc1ccc(-c2cnccc2OC)c(C#Cc2ccc3ccccc3c2)n1 (stereo not shown) [Example 154]', 569),
  ('CC(N)C(=O)Nc1cc2ccccc2c(C#Cc2cc(F)cc(F)c2)n1 (stereo not shown) [Example 229]', 2420);

[1] CNC(C)C(=O)Nc1ccc(-c2c(C)nc3ccccn23)c(C#Cc2ccc(-n3cccn3)cc2)n1 (stereo not shown) [Example 90]
[2] CNC(C)C(=O)Nc1ccc(-c2c(C)nc3ccccn23)c(C#Cc2ccccc2)n1 (stereo not shown) [Example 174]
Data request: Identify the entry with the larger IC50. Options: 1 and 2 Give the label under which the chosen entry appears.
Data returned: 1
